The reported measurements were obtained from patent US20260116991A1.

measured on: T1, monkey GPC3-His protein (monkey)
T1 construct: Bought recombinant protein; also called monkey GPC3 protein
test summary: ELISA, monkey GPC3-His coated;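 also: Plate-coated antigen at 1 µg/mL, antibody binding 2 h at 37 °C, detected with HRP-labeled secondary antibody and TMB, absorbance at 450 nm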
assay endpoint: OD450 at 0.0001 nM (OD450)
Give just the number in OD450; leave the unit off.

Notebook: F3.81.19 (antibody, human IgG1, kappa, V domains shown, Human-murine chimeric antibody) VH: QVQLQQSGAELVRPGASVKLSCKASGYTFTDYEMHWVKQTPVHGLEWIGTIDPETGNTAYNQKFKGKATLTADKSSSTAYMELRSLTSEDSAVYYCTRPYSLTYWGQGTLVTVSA VL: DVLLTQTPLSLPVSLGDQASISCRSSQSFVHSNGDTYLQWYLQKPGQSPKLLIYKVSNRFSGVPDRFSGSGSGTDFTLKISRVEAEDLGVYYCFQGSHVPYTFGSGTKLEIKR , OD450 at 0.0001 nM read as 0.05

Notebook: F2.23.8 (antibody, human IgG1, kappa, V domains shown, Human-murine chimeric antibody) VH: QVQLQQSGAELVRPGASVKLSCKASGYTFTDYEMHWVKQTPVHGLEWFGAIDPETGGTAYNQKFRAKATLTADKSSSTAYMELRSLTSEDSAVYYCTRFYSFAYWGQGTLVTVSA VL: DVVMTQTPLSLPVSLGDQASISCRSSQSLVHSNGNTYLQWYLQKPGQSPKLLIYKVSNRFSGVPDRFSGSGSGTDFTLKITRVEAEDLGVYFCSQSTHVPYTFGSGTKLEIKR , OD450 at 0.0001 nM read as 0.27

Notebook: F1.73.9 (antibody, human IgG1, kappa, V domains shown, Human-murine chimeric antibody) VH: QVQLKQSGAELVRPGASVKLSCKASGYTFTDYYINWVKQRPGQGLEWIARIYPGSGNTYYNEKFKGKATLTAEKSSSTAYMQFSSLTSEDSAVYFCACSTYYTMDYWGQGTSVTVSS VL: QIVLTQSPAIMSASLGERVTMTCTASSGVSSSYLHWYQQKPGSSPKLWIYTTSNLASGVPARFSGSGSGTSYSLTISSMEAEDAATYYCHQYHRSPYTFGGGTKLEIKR , OD450 at 0.0001 nM read as 0.05
